Cited source for all entries: patent US20180105492A1

System: SH-SY5Y cells
TEST_PROTOCOL: Neuroprotection against rotenone/oligomycin A, pre-incubation model, MTT
Type: cell-based
PROTOCOL_CONDITIONS: Homo sapiens, compound 1 μM pre-incubation 24 h, then Rot/Olig (30/10 μM), read-out: % Survival
Method: SH-SY5Y cells [ECACC 94030304], in 5 to 16 passage after defreezing were maintained in Eagle media modified by Dulbecco (DMEM) containing 15 non-essential amino acids and supplemented with 10% fetal bovine serum, 1 mM glutamine, 50 units/mL penicillin/streptomycin (obtained from GIBCO, Madrid, Spain). […] In order to assess cellular viability, we measured the metabolic reduction of 3-(4,5-Dimethylthiazol-2-yl)-2,5 diphenyltetrazolium bromide (MTT). […]
MEASURED_METRIC: viability at 1 µM (%)
Write down the numeric answer in % and omit the unit.

COMPOUND	viability at 1 µM, %
COc1ccccc1/C=C/C(=O)Oc1ccc2[nH]cc(CCNC(C)=O)c2c1	67.1

Check the records and state viability at 1 µM for `C/C=C/C(=O)Oc1ccc2[nH]cc(CCNC(C)=O)c2c1`
70.4

Check the records and state viability at 1 µM for `CC(=O)NCCc1c[nH]c2ccc(OC(=O)/C=C/c3ccc(C(F)(F)F)cc3)cc12`
73.4

Check the records and state viability at 1 µM for `CC(=O)NCCc1c[nH]c2ccc(OC(=O)/C=C/c3ccc(F)cc3)cc12`
67.4
